The origin of these recorded values is patent US9034856B2.

# study target: UniProt P10275
# Sequence (P10275 whole entry, species assumed): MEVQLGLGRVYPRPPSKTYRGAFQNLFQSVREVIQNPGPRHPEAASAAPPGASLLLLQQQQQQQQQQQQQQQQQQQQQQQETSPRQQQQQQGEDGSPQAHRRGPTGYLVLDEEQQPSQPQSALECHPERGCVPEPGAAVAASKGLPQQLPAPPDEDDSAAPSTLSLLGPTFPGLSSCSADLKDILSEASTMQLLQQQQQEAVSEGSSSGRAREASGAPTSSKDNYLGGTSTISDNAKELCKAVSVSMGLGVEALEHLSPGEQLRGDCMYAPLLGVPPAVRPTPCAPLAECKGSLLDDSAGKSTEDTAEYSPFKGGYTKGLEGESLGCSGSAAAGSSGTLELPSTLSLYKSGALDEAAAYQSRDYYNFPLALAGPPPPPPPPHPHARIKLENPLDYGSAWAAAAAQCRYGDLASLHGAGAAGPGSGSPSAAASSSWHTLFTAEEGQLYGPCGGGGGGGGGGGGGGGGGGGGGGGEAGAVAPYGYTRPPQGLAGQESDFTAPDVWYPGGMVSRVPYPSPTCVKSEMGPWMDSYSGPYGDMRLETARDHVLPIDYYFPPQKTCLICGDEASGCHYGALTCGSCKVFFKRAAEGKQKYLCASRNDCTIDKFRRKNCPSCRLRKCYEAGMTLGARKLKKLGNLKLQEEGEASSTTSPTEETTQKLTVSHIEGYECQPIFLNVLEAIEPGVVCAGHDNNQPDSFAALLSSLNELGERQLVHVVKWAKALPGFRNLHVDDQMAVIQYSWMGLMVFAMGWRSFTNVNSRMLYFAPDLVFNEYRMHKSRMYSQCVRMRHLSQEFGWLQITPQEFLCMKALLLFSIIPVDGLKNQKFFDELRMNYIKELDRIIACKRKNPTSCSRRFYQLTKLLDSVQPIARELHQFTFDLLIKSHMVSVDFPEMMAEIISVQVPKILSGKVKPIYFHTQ
# method summary: Androgenic/antiandrogenic action by transactivation test (PC3 reporter cells)
# Format: cell-based
# conditions: read-out: Androgen receptor Agonism efficacy
# Method: 6. Determination of Androgenic/Antiandrogenic Action by Means of Transactivation Tests: The androgenic/antiandrogenic action of the test substances was determined as for the transactivation tests described above. The following modifications were made: In this case reporter cell lines were used (PC3 cells) that express the androgen receptor, and a reporter construct that contains luciferase under the control of a steroid hormone-responsive promoter. […]
experimental readout: Emax (%)
Supply the numeric figure in %, leaving out any unit text.

Take a look at these entries with their results.
compound	output unit	test result
C[C@]12CC[C@H]3[C@@H](CCC4=CC(=O)CC[C@@H]43)[C@@H]1CC1(CC1)[C@@]21C=CCO1 (stereo in doubt)	%	49.7
CC[C@]12CC[C@H]3[C@@H](CCC4=CC(=O)CC[C@@H]43)[C@@H]1CC[C@@]21C=CCO1 (stereo in doubt)	%	78.3
CC[C@@H]1CC2=CC(=O)CC[C@@H]2[C@H]2CC[C@@]3(CC)[C@@H](CC[C@@]34C=CCO4)[C@H]12	%	70.4
C[C@]12CC[C@H]3[C@@H](C=CC4=CC(=O)CC[C@@H]43)[C@@H]1CC[C@@]21C=CCO1 (stereo in doubt)	%	31.9
CC[C@]12CC[C@H]3[C@@H]([C@H](C)CC4=CC(=O)CC[C@@H]43)[C@@H]1CC[C@@]21C=CCO1	%	77.9

Now let's try a different one.
Consider `C[C@@H]1CC2=CC(=O)CC[C@@H]2[C@H]2CC[C@@]3(C)[C@@H](CC[C@@]34C=CCO4)[C@@H]21` . Its measured Emax is 80.2
